- System: NCI-H23
- Experimental Details: NCI tumour cell line growth inhibition, 48 h
The source made the active and inactive calls. No stated cut-off is given here; in the data, active = GI50 up to about 1.1 µM and inactive = higher.
Metric Name: GI50

Some molecules with known GI50 results, for comparison:
| Cpd Smiles | GI50 |
| --- | --- |
| Cc1cc(C)nc(NS(=O)(=O)c2ccc(NC(=O)c3c4ccccc4nc4ccccc34)cc2)n1 | 44.2 µM (inactive) |
| O=C(NC/C(Cl)=C/Cl)Nc1cccc2c1CCCC2 | > 100 µM (inactive) |

Lab note: next molecule to report on.
molecule C=C[C@@]1(C)CC(=O)[C@]2(O)[C@@]3(C)[C@@H](OC(C)=O)CCC(C)(C)[C@@H]3[C@H](OC(C)=O)[C@H](OC(C)=O)[C@@]2(C)O1 , GI50 observed: > 100 µM (inactive)

---

- System: LOX IMVI
- Experimental Details: NCI tumour cell line growth inhibition, 48 h
Active and inactive are the calls of the source. No stated cut-off is given here; in the data, active = GI50 up to about 1.1 µM and inactive = higher.
Metric Name: GI50

Worked examples follow.
| Compound | Metric Name | Recorded Result |
| --- | --- | --- |
| COc1ccc(-c2onc(-c3c(C)cc(C)cc3C)c2C2=NCCCN2)cc1 | GI50 | 43.3 µM (inactive) |
| COC(OC)C1OC(CO)C(n2ccc(N)nc2=O)C1O (stereo not drawn) | GI50 | > 100 µM (inactive) |

# context switch: different compound, same GI50
GI50 on LOX IMVI for COC(=O)C1OC(Oc2cc(O)c3c(=O)cc(-c4ccc(O)cc4)oc3c2)C(O)C(O)C1O (stereo not drawn) is > 100 µM (inactive)

---

Would you mind telling me the reported GI50 of each entry?
- Tested on: PC-3
- Experimental Details: NCI tumour cell line growth inhibition, 48 h
Active and inactive are the calls of the source. No stated cut-off is given here; in the data, active = GI50 up to about 1.1 µM and inactive = higher.

Worked set:
| Compound | Experimental Target | Metric Name | Recorded Result |
| --- | --- | --- | --- |
| NC(=O)NNC(=O)c1nc[nH]c1[N+](=O)[O-] | PC-3 | GI50 | > 100 µM (inactive) |
| CCCC(=O)NC(NC1CCCCC1)(C(=O)OCC)C(F)(F)F (stereo unspecified) | PC-3 | GI50 | > 100 µM (inactive) |
| Cc1cc2nc3[nH]nc(N)c3nc2cc1C | PC-3 | GI50 | > 100 µM (inactive) |
| CC(=O)NCCCCN(CCCNC(C)=O)C(=O)CNS(=O)(=O)c1cccc2c(N(C)C)cccc12 | PC-3 | GI50 | > 100 µM (inactive) |

Go through the items and report each one's GI50.
1. CC(=O)NC(C)(C)C1CCC(C)CC1 (stereo unspecified)
2. Cc1c(O)c(OC2OC(CO)C(O)C(O)C2O)cc2c1CC[C@@H]1C2(C)C(=O)C[C@]2(C)[C@@H]([C@@](C)(O)C(O)/C=C/C(C)(C)O)[C@H](O)C[C@@]12C (stereo partly specified)
3. O/N=C(\C=N\O)c1ccc2c(c1)Sc1ccccc1O2
4. CN1c2ccc(Cl)cc2C(=O)NC1c1ccc([N+](=O)[O-])s1 (stereo unspecified)
5. O=[N+]([O-])c1ccc(/C=N/Nc2nnc3c4ccccc4c4ncccc4c3n2)o1
6. CC(C)[C@H](NC(=O)[C@@H](O)[C@H](N)Cc1ccccc1)C(=O)N[C@@H](Cc1ccccc1)C(=O)O

1: > 100 µM (inactive); 2: > 100 µM (inactive); 3: 14.8 µM (inactive); 4: 16 µM (inactive); 5: > 10 µM (inactive); 6: > 100 µM (inactive)

For reference, reported GI50 for CSc1ncnc2c1cnn2Cc1cn(COCC(O)CO)nn1 (stereo unspecified) stands at > 100 µM (inactive)
